Reported values of pIC50 for individual entries
- Tested on: G-protein coupled receptor 6 (Homo sapiens, UniProt P46095)
- Sequence (P46095 whole entry): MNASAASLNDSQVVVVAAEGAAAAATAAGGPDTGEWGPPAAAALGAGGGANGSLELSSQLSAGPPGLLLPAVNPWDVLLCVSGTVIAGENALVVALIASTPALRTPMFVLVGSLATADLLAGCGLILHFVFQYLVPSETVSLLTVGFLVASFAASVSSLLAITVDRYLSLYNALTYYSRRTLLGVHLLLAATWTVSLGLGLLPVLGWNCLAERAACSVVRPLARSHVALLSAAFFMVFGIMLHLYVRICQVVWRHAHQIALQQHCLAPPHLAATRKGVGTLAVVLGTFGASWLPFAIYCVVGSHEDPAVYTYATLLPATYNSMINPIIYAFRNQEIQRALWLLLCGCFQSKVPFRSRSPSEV
- Protocol notes: Modulation activity at GPR6 receptor (unknown origin) expressed in CHO-K1 cells assessed as inhibition of constitutive cAMP activity incubated for 45 mins by Perkin Elmer Lance HTRF Ultrac-AMP assay
pIC50: −log10 of the molar value.

>  <Compound>
COc1ccc(C(=O)C2CCN(c3nc4cnccc4nc3NC3CC3)CC2)c(F)c1

>  <pIC50>
7.68

$$$$
>  <Compound>
COc1ccc(OC2CCN(c3nc4c(N5CCOCC5)nccc4nc3NC3CC3)CC2)c(F)c1

>  <pIC50>
6.94

$$$$
>  <Compound>
C[C@H](CO)Nc1nc2ccccc2nc1N1CCN(Cc2cc(Cl)ccc2Cl)CC1

>  <pIC50>
5.80

$$$$
>  <Compound>
COc1ccc(C(=O)C2CCN(c3nc4c(N5CCOCC5)nccc4nc3NC3CC3)CC2)c(F)c1

>  <pIC50>
6.14

$$$$
>  <Compound>
CC1CC1Nc1nc2cnncc2nc1N1CCC([C@@H](F)c2ccc(F)cc2F)CC1 (some centres undefined)

>  <pIC50>
6.84

$$$$
>  <Compound>
Fc1ccc(CN2CCN(c3nc4cnccc4nc3NC3CC3)CC2)c(F)c1

>  <pIC50>
7.68

$$$$
>  <Compound>
Fc1ccc(OC2CCN(c3nc4cnccc4nc3NC3CC3)CC2)c(F)c1

>  <pIC50>
5.96

$$$$
